System: RXF 393 renal
Experiment: NCI-60 one-dose screen, 48 h (100 = growth as untreated, 0 = no growth, -100 = all killed)
Conditions: 10 µM unless noted
The panel holds about 83,000 compounds, 20% with a hit somewhere; the sample as a whole holds those more often.
growth reference
Give just the numeric value; % need not be written.

[
  {
    "compound": "Nc1nc(-c2cccc([N+](=O)[O-])c2)c(N=Nc2ccccc2[N+](=O)[O-])s1",
    "growth (%)": -67.7
  }
]

Q: Item under review: CCN1CCN(c2cc(C(=O)Nc3nc4ccc(Oc5ccnc(C(=O)NC)c5)cc4s3)cc(C(F)(F)F)c2)CC1 . Reported growth?
A: -15.6

Q: Item under review: COc1cc2c3c(n(CCCN4CCCCC4)c(=O)c2cc1OC)-c1cc2c(cc1C3=O)OCO2 . Reported growth?
A: -73.9

Q: Item under review: CC(c1ccccc1)N1C(=O)/C(=C/c2csc(C#N)n2)SC1=S (stereo not given) . Reported growth?
A: 90.1

Q: Item under review: CCOC(=O)Nc1cccc(-n2cnc3cc(-c4ccc(O)cc4)ccc32)c1 . Reported growth?
A: -12.8

---

System: RXF 393 renal
Assay: NCI-60 one-dose screen, 48 h
Details: 10 µM unless noted
The panel holds about 83,000 compounds, 20% with a hit somewhere; the sample as a whole holds those more often. Calls of active or inactive are those of the source. How the source made its calls: active means growth percent below 10; inactive means the rest.
Result category, one only: active, inactive

Answered examples (10):
[
  {
    "compound": "CCN1C(=O)N(CC)C2SC(N/N=C/c3ccccc3)=NC21 (stereo not given)",
    "qualitative-label": "inactive"
  },
  {
    "compound": "Cc1ccc(S(=O)(=O)N/N=C/c2cn(-c3ccc(F)cc3)nc2-c2ccc(S(C)(=O)=O)cc2)cc1",
    "qualitative-label": "inactive"
  },
  {
    "compound": "O=C(CSc1nnc(-c2cccs2)n1-c1ccccc1)Nc1ccc(F)cc1",
    "qualitative-label": "inactive"
  },
  {
    "compound": "Cc1cc(-c2ccc3nc(N)sc3c2)nc2ccc3[nH]ncc3c12",
    "qualitative-label": "inactive"
  },
  {
    "compound": "COc1ccccc1/C=C/C=N/NC1=NC2C(S1)N(C)C(=O)N2c1ccccc1 (stereo not given)",
    "qualitative-label": "active"
  },
  {
    "compound": "COc1ccc(CCN2C(=O)CSC2=S)cc1OC",
    "qualitative-label": "inactive"
  },
  {
    "compound": "Oc1ccc(CSc2nnc(-c3ccc(Br)cc3)o2)c2cccnc12",
    "qualitative-label": "inactive"
  },
  {
    "compound": "Clc1ccccc1/C=C/c1nn2c(-c3ccncc3)nnc2s1",
    "qualitative-label": "inactive"
  },
  {
    "compound": "COc1cc([C@H]2OC[C@H]3[C@@H]2CO[C@@H]3c2ccc(O)c(OC)c2)ccc1O",
    "qualitative-label": "inactive"
  },
  {
    "compound": "O=C(COc1ccc(/C=C2\\SC(=O)NC2=O)cc1)Nc1ccc(C(=O)/C=C/c2cc3ccccc3nc2Cl)cc1",
    "qualitative-label": "active"
  }
]

Q: For this compound, state the assay outcome: O=C1c2c(c3c4cccnc4[nH]c3c3ccc4ccccc4c23)C(=O)N1CCN1CCOCC1
A: inactive

Q: For this compound, state the assay outcome: N=c1c2cc(-c3ccccc3)oc2ncn1/N=C/c1ccccc1
A: inactive

Q: For this compound, state the assay outcome: O=C(CCCCCCN1CC(=O)N2[C@@H](c3ccccc3)c3[nH]c4ccccc4c3C[C@H]2C1=O)NO
A: inactive

Q: For this compound, state the assay outcome: CCOC(=O)/C=c1\sc2n(c1=O)C1C(NN=2)N(CC)C(=O)N1CC (stereo not given)
A: inactive

Q: For this compound, state the assay outcome: COc1ccc(/C=N/Nc2nc(Nc3ccccc3)nc(Nc3ccc(S(N)(=O)=O)cc3)n2)cc1
A: inactive

Q: For this compound, state the assay outcome: CCOC(=O)C1=C(C)Nc2nc3ccccc3n2C1c1cccc(Br)c1 (stereo not given)
A: inactive
